# assayed-system: T1, human PD-L1 protein (soluble) (human, UniProt Q9NZQ7 19-239)
# T1 construct: also called PD-L1 (R&D Systems); His-tagged PD-L1 protein
# T1 sequence (Q9NZQ7 19-239 limits assumed): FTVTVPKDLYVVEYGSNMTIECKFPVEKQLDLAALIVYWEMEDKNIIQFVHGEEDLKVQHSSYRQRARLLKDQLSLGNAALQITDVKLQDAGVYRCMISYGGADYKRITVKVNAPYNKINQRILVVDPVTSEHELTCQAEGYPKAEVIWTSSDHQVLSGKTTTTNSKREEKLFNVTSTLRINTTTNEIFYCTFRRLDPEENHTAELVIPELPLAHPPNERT
# measurement-notes: SPR, mAb captured on anti-human IgG Fc, PD-L1 as analyte;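 also: array SPR with mAb supernatants captured at several densities, PD-L1 injected for 5 min then 15 min dissociation, non-regenerative kinetic series, double-referenced against interspot surface and blank injection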
Kd values, listed per item
Please provide the amount together with its unit, number first.

Example entries begin here.
# binder, measured-result
rows = [
    ("antibody A8 (antibody, V domains shown, Tested as full-length mAb made in CHO cells; also called L8H8) VH: QVQLVQSGAEVKKPGASVKVSCKASGYTFTSYGISWVRQAPGQGLEWMGWISAYNGSTNYAQKLQGRVTMTTDTSTSTAYMELRSLRSDDTAVFYCARDDRIAVADYYYYFGMDVWGQGTTVTVSS VL: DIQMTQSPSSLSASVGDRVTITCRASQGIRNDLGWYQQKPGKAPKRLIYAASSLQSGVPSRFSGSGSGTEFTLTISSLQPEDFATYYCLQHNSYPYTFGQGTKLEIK", "22.8 nM"),
    ("antibody A20 (antibody, V domains shown, Tested as full-length mAb made in CHO cells; also called L20H20) VH: QVQLQESGPGLVKPSETLSLTCTVSGGSISSYYWSWIRQPPGKGLEWIGYIYYSGSTNYNPSLKSRVTISVDTSKNQFSLKLSSVTAADTAVYYCARDDRIAVGPYYYYYGMDVWGQGTTVTVSS VL: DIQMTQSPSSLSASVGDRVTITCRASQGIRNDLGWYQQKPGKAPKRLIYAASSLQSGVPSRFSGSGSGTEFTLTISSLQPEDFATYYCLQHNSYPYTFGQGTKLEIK", "688 nM"),
]

Value of Kd reported for the binder antibody A19 (antibody, V domains shown, Tested as full-length mAb made in CHO cells; also called L19H19) VH: QVQLVESGGGVVQPGRSLRLSCVASGFTFSSYGMHWVRQAPGKGLEWVAVIWYDGSNKFYIDSVKGRFTISRDNSKNTLYLQMNSLRAEDTAVYYCARGGAVAGTSWYYYYGMDVWGQGTTVTVSS VL: DIQLTQSPSFLSASVGDRVTITCRASQGISSYLAWYQQKPGKAPKLLIYDASTLQSGVPSRFSGSGSGTEFTLTISSLQPEDFAIYYCQQLNTYPLTFGGGTKVEIK is 565 nM

Numbers sourced from patent US20220056137A1.
